Target: T1, human A-beta(1-40) peptide, monomeric (BAM) (human, biotin at the C-terminus in capture ELISA, SPR and TR-FRET; not biotinylated where coated directly (Example 7))
T1 construct: synthetic peptide (Anaspec), TFA/HFIP treated to give monomer; also called monomeric A-beta
Assay: TR-FRET competition, labelled ABII42D4
pIC50: −log10 of the molar value.
VALUE KIND: pIC50

BINDER: ABII111B5_M107E (VHH, targeted mutant) VHH: EVQLVESGGGLVLAGGSLRLSCVHSGPTFRTDTMGWFRQAPGKEREFVAAVTWNSGRINYADSVKGRFTVSRDNTRNAAYLQMSGLKDEDTAVYYCTAHRFVVGGNEVEDWRYWGQGTQVTVSS
READING: 8.37
//
BINDER: ABIIPMP111C6 (VHH, c-myc and (His)6 tags) VHH: EVQLVESGGGLVLAGGSLRLSCVHSGPTFWTDTMGWFRQAPGKEREFVAAVTWNSGRLNYADSVKGRFTVSRDNTRNAAYLQMSGLKDEDTAVYYCTAHRQVVGGVQVLDWRYWGQGTQVTVSS
READING: 8.22
//
BINDER: ABII111B5_F101W (VHH, targeted mutant) VHH: EVQLVESGGGLVLAGGSLRLSCVHSGPTFRTDTMGWFRQAPGKEREFVAAVTWNSGRINYADSVKGRFTVSRDNTRNAAYLQMSGLKDEDTAVYYCTAHRWVVGGNMVEDWRYWGQGTQVTVSS
READING: 8.14
//
BINDER: ABIIPMP111E4 (VHH, c-myc and (His)6 tags) VHH: EVQLVESGGGLVLAGGSLRLSCVHSGPTFSTDTMGWFRQAPGKEREFVAAVTWNSGRTNYADSVKGRFTVSRDNTRNAAYLQMSGLKDEDTAVYYCTAARLTVGSLSVGDWRYWGQGTQVTVSS
READING: 8.21
//
BINDER: ABII111E5cl1 (VHH, c-myc and (His)6 tags) VHH: EVQLVESGGGLVLAGGSLRLSCVHSGPTFLTDTMGWFRQAPGKEREFVAAVTWNSGRINYADSVKGRFTVSRDNTRNAAYLQMSGLKDEDTAVYYCTAHRFVVGGREVQDWRYWGQGTQVTVSS
READING: 8.06
//
BINDER: ABII111B5_M107R = ABII002 (VHH, myc-tagged in ELISA) VHH: EVQLVESGGGLVLAGGSLRLSCVHSGPTFRTDTMGWFRQAPGKEREFVAAVTWNSGRINYADSVKGRFTVSRDNTRNAAYLQMSGLKDEDTAVYYCTAHRFVVGGNRVEDWRYWGQGTQVTVSS
READING: 8.54

[A] ABII111B5_E109Q (VHH, targeted mutant) VHH: EVQLVESGGGLVLAGGSLRLSCVHSGPTFRTDTMGWFRQAPGKEREFVAAVTWNSGRINYADSVKGRFTVSRDNTRNAAYLQMSGLKDEDTAVYYCTAHRFVVGGNMVQDWRYWGQGTQVTVSS
[B] ABIIPMP111C4 (VHH, c-myc and (His)6 tags) VHH: EVQLVESGGGLVLAGGSLRLSCVHSGPTFLTDTMGWFRQAPGKEREFVAAVTWNSGRANYADSVKGRFTVSRDNTRNAAYLQMSGLKDEDTAVYYCTAHRSVVGGVGVWDWRYWSQGTQVTVSS
Lookup: Which value of pIC50 is numerically greater: that of A or that of B ? Pick one and reply with its label.
Found: A

From: patent US20120058118A1
